# System: Solanum nigrum (SOLNI)
# METHOD_NOTES: Pre-emergence biological efficacy, glasshouse pot test
# Type: in vivo
# APPLIED_CONDITIONS: 312 h, pre-emergence, rate 1,000 g/ha, evaluated after 13 days (100=total damage to plant; 0=no damage), read-out: Percentage damage caused to weed species, SOLNI
pest or weed control at 1000 g/ha reference
Answer with a number only, understood to be in %.

Q) # lookup: pest or weed control at 1000 g/ha of COC(=O)c1nc(-c2ccc(OC)cc2F)nc(NCc2ccco2)c1Cl [Compound 258-48]
A) 0

Q) What measured pest or weed control at 1000 g/ha goes with COC(=O)c1nc(-c2ccc(Cl)c(C)c2)nc(NCc2ccco2)c1Cl [Compound 216-48] ?
A) 30

Q) Can you look up the measured pest or weed control at 1000 g/ha of O=C(O)c1nc(-c2ccc(Cl)cc2)nc(NCc2ccco2)c1Cl [Compound 37-125] for me?
A) 100

Q) Request the reported pest or weed control at 1000 g/ha associated with COC(=O)c1nc(-c2ccc(C(F)(F)F)cc2C(F)(F)F)nc(NCc2ccco2)c1Cl [Compound 234-48]
A) 80

Q) Sample COC(=O)c1nc(-c2ccc(Cl)c(C#N)c2)nc(NCc2ccco2)c1Cl [Compound 221-48] — what was its pest or weed control at 1000 g/ha?
A) 0

Q) Query (compound): C=CCN(Cc1cc(Cl)ccc1OC)c1nc(C2CC2)nc(C(=O)OC)c1Cl [Compound 151-117] ; field requested: pest or weed control at 1000 g/ha
A) 30

Q) Look at this compound and give its reported pest or weed control at 1000 g/ha. COC(=O)c1nc(-c2ccc(Cl)c(OC)c2F)nc(NCc2ccc(C)o2)c1Cl [Compound 112-135]
A) 100

Q) I'd like to know its pest or weed control at 1000 g/ha. The compound in question is COC(=O)c1nc(C2CC2)nc(N(C)Cc2ccccc2Cl)c1Cl [Compound 5-61]
A) 20

Q) // lookup pest or weed control at 1000 g/ha for COC(=O)c1nc(-c2ccc(Cl)cc2C(F)(F)F)nc(NCc2ccco2)c1Cl [Compound 220-48]
A) 0
